Biological target: T1, CEA-derived … (SEQ ID NO: 71)-HLA-A*0201 complex (biotin on the C-terminal biotinylation tag (enzymatic, BirA))
T1 construct: also called soluble biotinylated HLA-A2-peptide complex; not shown: C-terminal biotinylation tag that replaces the transmembrane and cytoplasmic domains
Test: Biacore SPR, pMHC immobilised
Assay metric: koff (s⁻¹)
Numeric only. Scale: s⁻¹

Entry soluble truncated variant of the Wild-Type ILT-2 molecule (receptor, also called soluble wild-type ILT-2; soluble two domain form of the wild-type ILT-2) MGHLPKPTLWAEPGSVITQGSPVTLRCQGGQETQEYRLYREKKTAPWITRIPQELVKKGQFPIPSITWEHAGRYRCYYGSDTAGRSESSDPLELVVTGAYIKPTLSAQPSPVVNSGGNVTLQCDSQVAFDGFILCKEGEDEHPQCLNSQPHARGSSRAIFSVGPVSPSRRWWYRCYAYDSNSPYEWSLPSDLLELLVL : reported koff = ?
2.4

The reported numbers originate from patent US20110172168A1.
